Cited source for all entries: PubChem BioAssay (NCI)

test system: HS 578T breast; assay: NCI-60 one-dose screen, 48 h; conditions: 10 µM unless noted
This is part of a sample that, as a whole, favours compounds with a hit. Of some 83,000 tested, about 20% had one in any assay. Calls of active or inactive are those of the source. How the source made its calls: active means growth percent below 10; inactive means the rest.
Field 'call' accepts 1 (active), -1 (inactive)

Ask | Entry `O=S(=O)(c1ccccc1)N1CCCc2ccccc21` : call = ?
Reply | -1

Ask | Entry `COc1ccc(-c2c[nH]c(C(=O)O)c2-c2cc(OC)c3c(c2OC)OCO3)cc1` : call = ?
Reply | -1

Ask | Entry `CC(C)(C#N)N1CCN(c2ccccc2Cl)CC1` : call = ?
Reply | -1

Ask | Entry `COc1cc2ncnc(Nc3ccc(C(=O)/C=C/c4ccc(C(F)(F)F)cc4F)cc3)c2cc1OC` : call = ?
Reply | -1

Ask | Entry C/C(=C(/c1ccccc1)c1ccc(OCC(O)CN2CCOCC2)cc1)c1ccccc1 (stereo not given) : call = ?
Reply | -1

Ask | Entry `COc1ccc(-c2nc(SCC(C)C)nc(N/N=C(/C)c3ccc(OC)c(OC)c3)c2C#N)cc1` : call = ?
Reply | -1

Ask | Entry `COc1cc(/C=C/C(=O)c2ccc(Nc3ncnc4ccccc34)cc2)cc(OC)c1` : call = ?
Reply | -1

Ask | Entry `Cc1c2c(cc[n+]1Cc1ccc(F)cc1)c1ccc(OCc3cccc(F)c3)cc1n2Cc1cccc(F)c1` : call = ?
Reply | 1

Ask | Entry `CCOC(=O)C1=C(C)NC(C)=C(C(=O)OCC)C1c1cc(Br)c(O)c(OC)c1` : call = ?
Reply | 1

Ask | Entry `C=C(C)[C@@H]1CC[C@]2(C=O)CC[C@]3(C)[C@H](CC[C@@H]4[C@@]5(C)CCCNC(C)(C)[C@@H]5CC[C@]43C)[C@@H]12` : call = ?
Reply | -1

Ask | Entry Fc1ccc(C2CC(c3cccc(Nc4ccncc4)c3)=NN2c2cc(Cl)cc(Cl)c2)cc1 (stereo not given) : call = ?
Reply | -1

Ask | Entry Clc1ccc(N2N=C(c3cccc(Nc4ccncc4)c3)CC2c2ccccc2)cc1 (stereo not given) : call = ?
Reply | -1

Ask | Entry `Nc1c(C(=O)Nc2cccc3ccncc23)sc2nc3c(cc12)C(=O)CCC3` : call = ?
Reply | -1

Ask | Entry `O=C(N/N=C/c1ccc(O)c(O)c1)c1sc2ccccc2c1Cl` : call = ?
Reply | -1

Ask | Entry `CC(C)CN(C(=O)c1ccc(Cl)cc1)c1c(N)n(CC(C)C)c(=O)[nH]c1=O` : call = ?
Reply | -1

Ask | Entry `C=C1C(=O)O[C@H]2[C@H]1CC/C(CNC(=O)/C=C/c1ccccc1F)=C\CC[C@@]1(C)O[C@@H]21` : call = ?
Reply | -1
